- subject of test: 5-hydroxytryptamine receptor 2A (Homo sapiens) (UniProt P28223)
- Sequence (P28223 whole entry, looked up): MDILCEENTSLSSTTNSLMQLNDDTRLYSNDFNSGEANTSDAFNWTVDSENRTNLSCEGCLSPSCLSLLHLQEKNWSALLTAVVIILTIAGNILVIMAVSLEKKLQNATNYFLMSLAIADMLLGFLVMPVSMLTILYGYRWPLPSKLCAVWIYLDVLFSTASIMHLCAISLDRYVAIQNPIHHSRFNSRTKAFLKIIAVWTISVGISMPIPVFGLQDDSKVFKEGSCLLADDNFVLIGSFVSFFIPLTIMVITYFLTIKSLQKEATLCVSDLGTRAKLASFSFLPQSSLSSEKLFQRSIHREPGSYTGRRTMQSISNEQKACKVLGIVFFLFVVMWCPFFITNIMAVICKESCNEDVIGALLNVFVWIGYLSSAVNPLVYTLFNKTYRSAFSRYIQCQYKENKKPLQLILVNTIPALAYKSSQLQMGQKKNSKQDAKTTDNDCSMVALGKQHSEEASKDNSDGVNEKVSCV
- protocol details: 5-hydroxytryptamine receptor 2A (HTR2A) small molecule antagonists, cell-based qHTS assay (AID 1963586); note: nearly all actives have a fitted effect of over 45% in size
- run parameters: HTR2A-CHO cells, DOI-induced calcium flux, fluorescence; series mostly up to 61.5 µM
Inconclusive results are not listed. Activity calls are given as the source filed them. Calls come from the whole dose curve.
Outcomes: active, inactive

# molecule, class
data = [
    ("IC(I)=C(I)I", "inactive"),
    ("COC(=O)/C=C(\\C)OP(=O)(OC)OC", "inactive"),
    ("FC(Cl)(Cl)C(F)(Cl)Cl", "inactive"),
    ("CC(=O)/C=C/c1ccc2c(c1)OCO2", "inactive"),
    ("CCOC1Oc2ccc(OS(C)(=O)=O)cc2C1(C)C (stereo unspecified)", "inactive"),
    ("Clc1ccc(-c2ccccc2)cc1", "inactive"),
    ("CN", "inactive"),
    ("Oc1cccc(Cl)c1Cl", "inactive"),
    ("Oc1c(Cl)cccc1Cl", "inactive"),
    ("CC(C)(CCl)C(=O)Cl", "inactive"),
    ("O=CNC(N1CCN(C(NC=O)C(Cl)(Cl)Cl)CC1)C(Cl)(Cl)Cl (stereo unspecified)", "inactive"),
    ("CCCCc1ccccc1", "inactive"),
    ("c1ccc(OCC2CO2)cc1 (stereo unspecified)", "inactive"),
    ("CCCN(CC1CC1)c1c([N+](=O)[O-])cc(C(F)(F)F)cc1[N+](=O)[O-]", "inactive"),
    ("CCCN(CCC)c1c([N+](=O)[O-])cc(C(F)(F)F)cc1[N+](=O)[O-]", "inactive"),
    ("CCO[C@H]1O[C@@H]2OC3(C)CC[C@H]4[C@H](C)CC[C@@H]([C@H]1C)[C@@]24OO3", "inactive"),
    ("O=S(=O)(Cl)c1ccccc1", "inactive"),
    ("C=CC(=O)OCC(COC(=O)C=C)(COC(=O)C=C)COC(=O)C=C", "inactive"),
    ("NC(=O)CI", "inactive"),
    ("O=P(O)(O)c1ccccc1", "inactive"),
    ("CCC(C)(C)C(=O)OC1=C(c2ccc(Cl)cc2Cl)C(=O)OC12CCCCC2", "inactive"),
    ("CC[C@H](C)[C@H]1O[C@]2(C=C[C@@H]1C)C[C@@H]1C[C@@H](C/C=C(\\C)[C@@H](O[C@H]3C[C@H](OC)[C@@H](O[C@H]4C[C@H](OC)[C@@H](NC)[C@H](C)O4)[C@H](C)O3)[C@@H](C)/C=C/C=C3\\CO[C@@H]4[C@H](O)C(C)=C[C@@H](C(=O)O1)[C@]34O)O2", "inactive"),
    ("OP(O)c1ccccc1", "inactive"),
    ("O=[N+]([O-])c1ccccc1CCl", "inactive"),
    ("O=[N+]([O-])c1ccc(F)c([N+](=O)[O-])c1", "inactive"),
    ("CC1(C)CCC(Cc2ccc(Cl)cc2)C1(O)Cn1cncn1 (stereo unspecified)", "active"),
]

The origin of these recorded values is PubChem BioAssay (Tox21).
